Recorded values, source paper PMC10237670.

TARGET SYSTEM: BLMcore P868L (Homo sapiens, UniProt P54132 636-1298, P868L)
Sequence (P54132 636-1298 P868L): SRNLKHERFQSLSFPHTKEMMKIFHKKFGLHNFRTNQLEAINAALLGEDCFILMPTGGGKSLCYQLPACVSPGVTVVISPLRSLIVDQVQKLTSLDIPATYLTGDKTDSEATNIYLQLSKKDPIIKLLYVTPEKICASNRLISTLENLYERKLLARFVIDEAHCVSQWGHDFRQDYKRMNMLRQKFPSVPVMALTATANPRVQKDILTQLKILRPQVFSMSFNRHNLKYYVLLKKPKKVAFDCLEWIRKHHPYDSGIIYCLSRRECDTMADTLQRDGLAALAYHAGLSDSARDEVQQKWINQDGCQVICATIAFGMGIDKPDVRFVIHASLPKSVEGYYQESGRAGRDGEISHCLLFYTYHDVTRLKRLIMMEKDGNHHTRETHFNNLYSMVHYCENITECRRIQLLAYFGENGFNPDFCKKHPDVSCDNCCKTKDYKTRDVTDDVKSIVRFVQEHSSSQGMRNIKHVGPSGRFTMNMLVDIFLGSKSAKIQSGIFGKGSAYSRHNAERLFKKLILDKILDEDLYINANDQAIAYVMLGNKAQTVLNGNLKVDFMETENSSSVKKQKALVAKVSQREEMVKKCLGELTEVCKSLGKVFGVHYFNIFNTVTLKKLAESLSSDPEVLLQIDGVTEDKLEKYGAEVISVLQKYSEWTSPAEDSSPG
EXPERIMENT: EMSA; 5 mM MgCl2; distinct shift; estimated apparent KD; 50 mM Tris-HCl pH 7.5, 50 mM KCl, 5 mM MgCl2, 1 mM DTT, 0.1 mg/mL BSA, 40 nM DNA, 30 min room temperature; 5% gel in TBE + 100 mM KCl at 4 C
CONDITION: protein: recombinant; (HisTrap purified); label: 3'-FAM on oAV320 (strand 2); 18 bp duplex, 3' overhang 39 nt on strand 1
pKd: −log10 of the molar value.
REPORTED PROPERTY: pKd

So for partial dsDNA with 3' ssDNA overhang (oRC32/FAM-oAV320) (dsDNA) DNA 1: TGGCGACGGCAGCGAGGCTTAGGGTTAGCGTTAGCGTTAGGGTTTTTTTTTTTTTTT DNA 2: GCCTCGCTGCCGTCGCCA , the logged pKd turned out to be ~7.20
